These entries and their values trace back to paper PMC3504387.

study.target: T1, GST–PPARγ fusion protein (purified ligand binding domain of PPARγ)
T1 chain: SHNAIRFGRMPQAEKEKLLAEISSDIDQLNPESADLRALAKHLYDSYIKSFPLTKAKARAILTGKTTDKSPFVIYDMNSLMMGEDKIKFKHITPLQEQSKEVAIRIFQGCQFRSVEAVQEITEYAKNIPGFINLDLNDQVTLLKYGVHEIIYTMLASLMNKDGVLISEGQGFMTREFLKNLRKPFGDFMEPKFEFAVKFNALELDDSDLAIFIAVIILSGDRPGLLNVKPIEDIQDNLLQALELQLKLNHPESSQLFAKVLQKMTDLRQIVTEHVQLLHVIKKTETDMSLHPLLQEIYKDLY
experimental.protocol: FRET or BRET; homogeneous TR-FRET as a1, 12-concentration dose–response of muraglitazar; the EC50 is of the compound; delta ratio in % of the reference compound at 10 μM (RO4899100 for PPARα, edaglitazone for PPARγ)
measurement.setup: both partners purified
Where no end group is shown, it is not given here. The star is where a group is joined. Biotin = O=C1N[C@H]2[C@H](CS[C@H]2CCCCC(=O)*)N1; Ahx = NCCCCCC(=O)O
property: EC50 of muraglitazar for recruitment (nM)

| binder | units.of.measure | EC50 of muraglitazar for recruitment |
| --- | --- | --- |
| {Biotin-Ahx}-DSKYSQTSHKLVQLLTTTAEQQLRH (source: synthetic peptide (Jerini or Biosynthan, Berlin)) [SRC1_M1 cofactor peptide (steroid receptor co-activator 1, motif 1)] | nM | 35.6 |
| {Biotin-Ahx}-CPSSHSSLTERHKILHRLLQEGSPS (source: synthetic peptide (Jerini or Biosynthan, Berlin)) [SRC1_M2 cofactor peptide (steroid receptor co-activator 1, motif 2)] | nM | 5.7 |
| {Biotin-Ahx}-SGNLVPDAASKHKQLSELLRGGSGS (source: synthetic peptide (Jerini or Biosynthan, Berlin)) [CBP cofactor peptide (cAMP responsive element binding protein (CREB)-binding protein)] | nM | 4.3 |

I = {Biotin-Ahx}-SNMHGSLLQEKHRILHKLLQNGNSP (source: synthetic peptide (Jerini or Biosynthan, Berlin)) [RAC3_M2 cofactor peptide (receptor-associated co-activator 3, motif 2)]
II = {Biotin-Ahx}-LDASKKKESKDHQLLRYLLDKDEKD (source: synthetic peptide (Jerini or Biosynthan, Berlin)) [SRC1_M3 cofactor peptide (steroid receptor co-activator 1, motif 3)]
III = {Biotin-Ahx}-TSGPQTPQAQQKSLLQQLLTE (source: synthetic peptide (Jerini or Biosynthan, Berlin)) [SRC1_M4 cofactor peptide (steroid receptor co-activator 1, motif 4)]
Problem: Endpoint returns the given binders ordered by ascending EC50 of muraglitazar for recruitment. Put the labels in the requested order and write them down.
Result: III, I, II
(III: 6.1 nM, I: 16.5 nM, II: 37.4 nM)
